Provenance of the data: the supplement of paper PMC10567573

Some variants, each annotated with its measured protein stability index.
B1: HSP90AB1 (parent)
chain: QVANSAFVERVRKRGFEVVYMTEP

# Variants of: B1
# Protocol description: protein stability index of a GFP-peptide fusion (GPS, HEK-293T) (PSI 1-6); higher = more stable;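 also: lentivirally expressed fusions sorted by FACS into six bins by GFP to DsRed ratio, PSI derived from sequencing read proportions per bin multiplied by bin number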
# Recorded conditions: c terminus: a fixed tail appended
Recorded metric: protein stability index

    mutation_label  observed_value
 0            G15E            2.56
 1             E9D            2.56
 2             N4E            2.81
 3            K13F            1.58
 4             A3W            1.91
 5            E17D               2
 6             A6D            2.67
 7            E23H            1.95
 8            E23I            1.69
 9            E23G            1.78
10            R12L             2.1
11            V19R            2.57
12            P24H             2.1
13             Q1D            2.21
14             N4P            2.03
15            T22H            1.91
16             A6S            2.61
17             F7E            3.48
18             A6I            1.68
19            R10N            2.99
20             E9S            1.63
21             V2A            2.87
22             N4L            1.69
23            V18N             3.1
24            Y20E            3.37
25             A6W            1.55
26             E9G            2.74
27            E17K            2.02
28            V11L            1.69
29             F7H            3.24
30            K13H            1.95
31            R14H            1.98
32            T22P            2.38
33            T22Q            2.54
34             Q1L            2.27
35            R10Y            1.58
36            Y20A            2.62
37             Q1G            2.33
38            F16W            2.04
39             A3Q            2.46
40            M21W            3.09
41            M21Y            2.04
42             V8C            2.92
43             F7R            2.75
44             V8Y             2.7
45            R14M             1.6
